Cited source for all entries: paper PMC8672735

Assay: Experimental solubility of [Nxxxx]y[VBH] active materials (maximum concentration by UV-Vis spectroscopy)
Type: physicochemical
Details: acetonitrile (MeCN), anhydrous, organic solvent or mixture, MeCN (ϵ = 37); +5 state, [Nxxxx][VBH]; read-out: Experimental solubility (maximum concentration of VBH in the electrolyte)
observation.type: solubility (mM)
Give the number; mM is assumed, so skip it.

[[record]]
molecule = "CC[N+](CC)(CC)CC [compound 2222]"
observation_type = "solubility"
recorded_number = 64

[[record]]
molecule = "CCCC[N+](C)(C)C [compound 1114]"
observation_type = "solubility"
recorded_number = 7


IN: In one line, give reported solubility of the entry CCC[N+](C)(C)C [compound 1113] .
OUT: 8

---

Measured solubility, listed per entry.
Test: Experimental solubility of [Nxxxx]y[VBH] active materials (maximum concentration by UV-Vis spectroscopy)
Format: physicochemical
Conditions: dimethyl sulfoxide (DMSO), anhydrous, organic solvent or mixture, DMSO (ϵ = 47); +4 state, [Nxxxx]2[VBH]; read-out: Experimental solubility (maximum concentration of VBH in the electrolyte)
Entry rule: numbers only, all in mM.

[[record]]
structure_smiles_string = "CCCC[N+](C)(C)C"
observation_type = "solubility"
recorded_number = 624


Please look at the following compound next.
IN: Note solubility for the compound shown: CCC[N+](C)(C)C
OUT: 246

---

Listing: solubility of selected compounds
Experiment: Experimental solubility of [Nxxxx]y[VBH] active materials (maximum concentration by UV-Vis spectroscopy)
Format: physicochemical
Settings: acetonitrile (MeCN), anhydrous, organic solvent or mixture, MeCN (ϵ = 37); +4 state, [Nxxxx]2[VBH]; read-out: Experimental solubility (maximum concentration of VBH in the electrolyte)
Your answer should be a number followed by the unit of measure.

[[record]]
compound = "CCCC[N+](C)(C)C [compound 1114]"
observation_type = "solubility"
result = "76 mM"


Now look at this entry.
IN: Report measured solubility; entry is CCC[N+](C)(C)C [compound 1113]
OUT: 24 mM

---

Entries and their solubility
Experiment: Experimental solubility of [Nxxxx]y[VBH] active materials (maximum concentration by UV-Vis spectroscopy)
Format: physicochemical
Settings: propylene carbonate (PC), anhydrous, organic solvent or mixture, PC (ϵ = 66); +4 state, [Nxxxx]2[VBH]; read-out: Experimental solubility (maximum concentration of VBH in the electrolyte)
Note: unit mM is implicit; provide only the numeric part.

[[record]]
compound = "CCC[N+](C)(C)C [compound 1113]"
observation_type = "solubility"
recorded_number = 108


Moving on to another compound below.
IN: Please report solubility for the following compound: CCCC[N+](C)(C)C [compound 1114]
OUT: 377

---

Test: Experimental solubility of [Nxxxx]y[VBH] active materials (maximum concentration by UV-Vis spectroscopy)
Type: physicochemical
Settings: propylene carbonate (PC), anhydrous, organic solvent or mixture, PC (ϵ = 66); +5 state, [Nxxxx][VBH]; read-out: Experimental solubility (maximum concentration of VBH in the electrolyte)
observation.type: solubility (mM)
Report only the number, with the unit mM understood.

[[record]]
structure_smiles_string = "CCC[N+](C)(C)C"
observation_type = "solubility"
recorded_number = 40

[[record]]
structure_smiles_string = "CCCC[N+](C)(C)C"
observation_type = "solubility"
recorded_number = 33


// moving on: another record for solubility
IN: # return recorded solubility for input CC[N+](CC)(CC)CC
OUT: 215
